- study-system: HLA-DR molecule DRB1*1301 (Homo sapiens, UniProt P01903+P01911, A100E/A169T/K41T/L162R/M171V/P40S/Q125H/Q178H/Q39Y/Q99D/R42S/S66N/T262R/W38E/Y61H)
- procedure-details: HLA-DR/peptide binding competition test, DRB1*1301
- Description: The tests for binding of the peptides to the HLA-DR molecules are competition tests with immunoenzymatic visualization, initially developed by Hill on the HLA-DR molecule (37). They are carried out in 96-well plates, which makes it possible to study numerous samples in the same experiment. Briefly, the purified HLA-DR molecules are incubated with a biotinylated peptide which serves as tracer and various concentrations of the peptide to be tested. […]
Ends that are not written are not given here.
measured-attribute: pIC50
Scale: pIC50 equals -log10([C]), with [C] in mol/L.

Return reported pIC50. Input sequence: TERVRLVTRHIYNREE [B1 21-36, reference compound]
6.56
